- Test system: Pseudomonas aeruginosa PA14 dppA1-A5 penta mutant + pBBR5.DppA1 (PA14_58350)
- Assay: respiration area under curve with compound as sole nitrogen source, 24 h (OmniLog AUC (arbitrary units)); higher = more respiration / better utilisation as nitrogen source, active = 2000 or more
Reported respiration area under curve values for the following molecules.
Reported endpoint: respiration area under curve

INSERT INTO assay_data (molecule, reported_endpoint, result) VALUES
  ('CC(C)C[C@H](NC(=O)[C@H](CC(C)C)NC(=O)[C@@H](N)CC(C)C)C(=O)O (plate: PM8)', 'respiration area under curve', '3090 (active)'),
  ('CSCC[C@H](NC(=O)[C@@H](N)Cc1ccccc1)C(=O)O (plate: PM8)', 'respiration area under curve', '805 (inactive)'),
  ('CC(C)[C@H](N)C(=O)N[C@@H](Cc1ccccc1)C(=O)O (plate: PM8)', 'respiration area under curve', '5560 (active)'),
  ('CC[C@H](C)[C@H](N)C(=O)N[C@H](C(=O)O)[C@@H](C)CC (plate: PM6)', 'respiration area under curve', '1010 (inactive)'),
  ('CSCC[C@H](N)C(=O)N[C@@H](CC(C)C)C(=O)O (plate: PM7)', 'respiration area under curve', '1540 (inactive)'),
  ('NC(=O)CC[C@H](NC(=O)[C@@H](N)CC(=O)O)C(=O)O (plate: PM8)', 'respiration area under curve', '7700 (active)'),
  ('CC(C)C[C@@H](N)C(=O)N[C@@H](Cc1ccc(O)cc1)C(=O)O (plate: PM8)', 'respiration area under curve', '21.2 (inactive)'),
  ('C[C@H](N)C(=O)NCC(=O)O (plate: PM6)', 'respiration area under curve', '6240 (active)'),
  ('C[C@H](N)C(=O)N[C@@H](CC(=O)O)C(=O)O (plate: PM8)', 'respiration area under curve', '9070 (active)'),
  ('CC(C)[C@H](N)C(=O)N[C@@H](CC(=O)O)C(=O)O (plate: PM7)', 'respiration area under curve', '6440 (active)'),
  ('C[C@H](NC(=O)[C@@H](N)Cc1c[nH]c2ccccc12)C(=O)O (plate: PM7)', 'respiration area under curve', '2360 (active)'),
  ('C[C@@H](N)C(=O)NCC(=O)O (plate: PM8)', 'respiration area under curve', '5420 (active)'),
  ('C[C@H](NC(=O)[C@@H](N)[C@@H](C)O)C(=O)O (plate: PM7)', 'respiration area under curve', '8470 (active)'),
  ('N[C@@H](CO)C(=O)N[C@@H](Cc1ccccc1)C(=O)O (plate: PM7)', 'respiration area under curve', '6220 (active)'),
  ('CC(C)[C@H](N)C(=O)N[C@@H](CCC(N)=O)C(=O)O (plate: PM8)', 'respiration area under curve', '7140 (active)'),
  ('O=C(O)[C@@H]1C[C@@H](O)CN1C(=O)[C@@H]1CCCN1 (plate: PM7)', 'respiration area under curve', '0 (inactive)'),
  ('CC(C)C[C@H](NC(=O)[C@@H](C)N)C(=O)O (plate: PM8)', 'respiration area under curve', '286 (inactive)'),
  ('NC(N)=NCCC[C@H](N)C(=O)N[C@@H](Cc1ccccc1)C(=O)O (plate: PM6)', 'respiration area under curve', '7570 (active)'),
  ('CC[C@H](C)[C@H](N)C(=O)N[C@@H](Cc1ccc(O)cc1)C(=O)O (plate: PM6)', 'respiration area under curve', '655 (inactive)'),
  ('CSCC[C@H](N)C(=O)N[C@H](C(=O)O)C(C)C (plate: PM7)', 'respiration area under curve', '3360 (active)'),
  ('CC[C@H](C)[C@H](N)C(=O)N[C@@H](CCSC)C(=O)O (plate: PM6)', 'respiration area under curve', '289 (inactive)'),
  ('CC[C@H](C)[C@H](NC(=O)CNC(=O)CN)C(=O)O (plate: PM8)', 'respiration area under curve', '2430 (active)'),
  ('CC(C)C[C@H](N)C(=O)N[C@H](CC(C)C)C(=O)O (plate: PM8)', 'respiration area under curve', '284 (inactive)'),
  ('CSCC[C@H](NC(=O)CN)C(=O)O (plate: PM6)', 'respiration area under curve', '50.7 (inactive)'),
  ('C[C@H](N)C(=O)N[C@@H](C)C(=O)N[C@@H](C)C(=O)O (plate: PM8)', 'respiration area under curve', '8340 (active)'),
  ('O=C(O)[C@H](Cc1ccc(O)cc1)NC(=O)[C@@H]1CCCN1 (plate: PM7)', 'respiration area under curve', '11800 (active)'),
  ('N[C@@H](Cc1ccccc1)C(=O)NCC(=O)NCC(=O)O (plate: PM8)', 'respiration area under curve', '7350 (active)'),
  ('C[C@H](O)[C@@H](NC(=O)CN)C(=O)O (plate: PM8)', 'respiration area under curve', '0 (inactive)'),
  ('CSCC[C@H](N)C(=O)N[C@H](C(=O)O)[C@@H](C)O (plate: PM8)', 'respiration area under curve', '1950 (inactive)'),
  ('N[C@@H](Cc1c[nH]c2ccccc12)C(=O)N[C@@H](CO)C(=O)O (plate: PM7)', 'respiration area under curve', '2890 (active)'),
  ('O=C(O)CC[C@H](NC(=O)[C@@H]1CCCN1)C(=O)O (plate: PM8)', 'respiration area under curve', '5380 (active)');

----------
- Test system: Pseudomonas aeruginosa PA14 dppBCDF deletion mutant
- Assay: respiration area under curve with compound as sole nitrogen source, 24 h (OmniLog AUC (arbitrary units)); higher = more respiration / better utilisation as nitrogen source, active = 2000 or more; extreme values may be limits of the assay
Outcomes: 1 (active), 0 (inactive)

INSERT INTO results (molecule, classification) VALUES
  ('C[C@@H](O)[C@H](N)C(=O)N[C@@H](CCC(=O)O)C(=O)O (plate: PM7)', 0),
  ('CC[C@H](C)[C@H](NC(=O)[C@@H]1CCCN1)C(=O)O (plate: PM8)', 0),
  ('O=C(O)CC(NC(=O)C1CCCN1)C(=O)O (stereo not drawn) (plate: PM7)', 0),
  ('NC(N)=NCCC[C@H](N)C(=O)N[C@@H](Cc1ccccc1)C(=O)O (plate: PM6)', 1),
  ('NC(N)=NCCC[C@H](N)C(=O)N[C@@H](CCC(=O)O)C(=O)O (plate: PM6)', 1),
  ('CC(C)[C@H](NC(=O)[C@@H](N)Cc1ccc(O)cc1)C(=O)O (plate: PM8)', 1),
  ('CSCCC(N)C(=O)NC(CCSC)C(=O)O (stereo not drawn) (plate: PM7)', 0),
  ('N[C@@H](CCC(=O)O)C(=O)N[C@@H](Cc1c[nH]c2ccccc12)C(=O)O (plate: PM6)', 0),
  ('CC(C)[C@H](N)C(=O)N[C@@H](Cc1ccccc1)C(=O)O (plate: PM8)', 1),
  ('CC(C)C[C@H](N)C(=O)N[C@@H](C)C(=O)O (plate: PM6)', 1),
  ('CC(C)[C@H](NC(=O)[C@@H](N)Cc1c[nH]c2ccccc12)C(=O)O (plate: PM8)', 0),
  ('CSCC[C@H](N)C(=O)N[C@@H](CC(C)C)C(=O)O (plate: PM7)', 0),
  ('CC[C@H](C)[C@H](NC(=O)[C@@H](N)CC(C)C)C(=O)O (plate: PM6)', 1),
  ('CC(C)[C@H](N)C(=O)N[C@@H](CCCN=C(N)N)C(=O)O (plate: PM7)', 1),
  ('CSCC[C@H](N)C(=O)N1CCC[C@H]1C(=O)O (plate: PM7)', 0),
  ('CC(C)CC(N)C(=O)NC(CC(=O)O)C(=O)O (stereo not drawn) (plate: PM6)', 0),
  ('NC(N)=NCCC[C@H](N)C(=O)N[C@@H](CC(=O)O)C(=O)O (plate: PM6)', 1),
  ('NC(=O)CC[C@H](NC(=O)[C@@H](N)CCCN=C(N)N)C(=O)O (plate: PM6)', 1),
  ('CC(C)[C@H](NC(=O)[C@@H](N)CC(=O)O)C(=O)O (plate: PM6)', 0),
  ('CC(C)[C@H](N)C(=O)N1CCC[C@H]1C(=O)O (plate: PM8)', 0),
  ('CC(C)C[C@H](N)C(=O)N[C@H](CC(C)C)C(=O)O (plate: PM8)', 0),
  ('CC(C)[C@@H](NC(=O)CN)C(=O)O (plate: PM8)', 0),
  ('C[C@@H](O)[C@H](N)C(=O)NCC(=O)O (plate: PM7)', 0),
  ('CC(C)C[C@H](N)C(=O)N[C@@H](CC(N)=O)C(=O)O (plate: PM8)', 1),
  ('O=C(O)CNC(=O)[C@@H]1CCCN1 (plate: PM7)', 0),
  ('CSCC[C@H](N)C(=O)NCC(=O)O (plate: PM7)', 0),
  ('NCC(=O)NCC(=O)NCC(=O)O (plate: PM8)', 0),
  ('CSCC[C@H](N)C(=O)N[C@@H](CC(=O)O)C(=O)O (plate: PM7)', 0),
  ('NC(=O)CC[C@H](N)C(=O)N[C@@H](CCC(=O)O)C(=O)O (plate: PM8)', 1),
  ('NC(N)=NCCC[C@H](NC(=O)[C@@H](N)Cc1c[nH]c2ccccc12)C(=O)O (plate: PM7)', 1),
  ('NC(N)=NCCC[C@H](N)C(=O)N[C@@H](CO)C(=O)O (plate: PM6)', 1),
  ('NCC(=O)NCC(=O)O (plate: PM6)', 0),
  ('CC(C)[C@H](N)C(=O)N[C@@H](CCC(=O)O)C(=O)O (plate: PM8)', 0);
